Values compiled from patent US12215140B2.

- System: hemoglobin-haptoglobin complex
- MEASUREMENT DESCRIPTION: Stability of hemoglobin (as hemoglobin-haptoglobin complex) in samples preserved at 37° C. in preservation solution containing 1 unit/L haptoglobin, Hb measured by latex agglutination method (Examples 1 to 7)
- Parameters: species or system human
- MEASUREMENT CONDITIONS: No feces; sugar 100 mmol/L + phenylboronic acid 15 mmol/L; 37° C., 14 days
PROPERTY MEASURED: Hb concentration (µg/L)
State the answer as a number, implicitly in µg/L.

OC[C@H]1O[C@@](CO)(O[C@H]2O[C@H](CO)[C@@H](O)[C@H](O)[C@H]2O)[C@@H](O)[C@@H]1O | 241
OC[C@@H](O)[C@@H](O)[C@H](O)[C@H](O)CO | 252
OC[C@@H](O)[C@@H](O)[C@H](O)[C@@H](O)CO | 244
OC[C@H]1O[C@H](O[C@H]2O[C@H](CO)[C@@H](O)[C@H](O)[C@H]2O)[C@H](O)[C@@H](O)[C@@H]1O | 251

// below: Hb concentration requested for another molecule
Task: Using the record for O=C(CO)[C@@H](O)[C@H](O)[C@H](O)CO , report its Hb concentration.
Result: 251
